Cited source for all entries: the supplement of paper PMC11061612

Below is a list of entries, each paired with its recorded Bliss excess value.
- Tested on: JHH-4 (Hepatocellular Carcinoma);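 note: after 72 h of two-drug dosing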
- Assay Method Text: Bliss excess, mean over the matrix (fraction); higher = more synergy
Metric Name: Bliss excess

Compound: CCN(CCO)CCCOc1ccc2c(Nc3cc(CC(=O)Nc4cccc(F)c4)[nH]n3)ncnc2c1 [AZD2811] + C[C@@H]1COCCN1C2=NC(=NC(=C2)C3(CC3)[S@](=N)(=O)C)C4=C5C=CNC5=NC=C4 [AZD6738] (first compound max 1 µM, 7x7, partner max 10 µM)
Metric Name: Bliss excess
Measured Value: -0.0341
//
Compound: Cc1cc2ncnn2cc1Nc1ncc2c(n1)n(C1CCOCC1)c(=O)n2C [AZD7648] + C[C@@H]1COCCN1C2=NC(=NC(=C2)C3(CC3)[S@](=N)(=O)C)C4=C5C=CNC5=NC=C4 [AZD6738] (first compound max 10 µM, 7x7, partner max 10 µM)
Metric Name: Bliss excess
Measured Value: 0.013

---

- Tested on: PC-3 (Prostate Carcinoma)
- Assay Method Text: combination Emax (second highest fraction inhibited in the dose matrix, 72 h); higher = more inhibition; extreme values may be limits of the assay

Molecule: Cc1c2c(nn1C)CSCc1cc(n(C)n1)CSc1cc(c3ccccc3c1)OCCCc1c(C(=O)O)n(C)c3c-2c(Cl)ccc13 [AZD5991] + Cc1cc2ncnn2cc1Nc1ncc2c(n1)n(C1CCOCC1)c(=O)n2C [AZD7648] (first compound max 1 µM, 7x7, partner max 10 µM)
combination Emax: 0.305
//
Molecule: Cc1cc2ncnn2cc1Nc1ncc2c(n1)n(C1CCOCC1)c(=O)n2C [AZD7648] + CCN(CCO)CCCOc1ccc2c(Nc3cc(CC(=O)Nc4cccc(F)c4)[nH]n3)ncnc2c1 [AZD2811] (first compound max 10 µM, 7x7, partner max 1 µM)
combination Emax: 0.243
//
Molecule: CC1(C)CCC(CN2CCN(c3ccc(C(=O)NS(=O)(=O)c4ccc(NCC5CCOCC5)c([N+](=O)[O-])c4)c(Oc4cnc5[nH]ccc5c4)c3)CC2)=C(c2ccc(Cl)cc2)C1 [Venetoclax] + CN(C)CCCOc1ccc(-c2ccc3ncc4c(c3c2)n(C2CCOCC2)c(=O)n4C)cn1 [AZD0156] (first compound max 1 µM, 7x7, partner max 1 µM)
combination Emax: 0.21
//
Molecule: CCN(CCO)CCCOc1ccc2c(Nc3cc(CC(=O)Nc4cccc(F)c4)[nH]n3)ncnc2c1 [AZD2811] + C=CCn1c(=O)c2cnc(Nc3ccc(N4CCN(C)CC4)cc3)nc2n1-c1cccc(C(C)(C)O)n1 [AZD1775] (first compound max 1 µM, partner max 1 µM)
combination Emax: 0.237
//
Molecule: NC1(C(=O)N[C@@H](CCO)c2ccc(Cl)cc2)CCN(c2ncnc3[nH]ccc23)CC1 [Capivasertib] + CC(=O)c1c(C)c2cnc(Nc3ccc(N4CCNCC4)cn3)nc2n(C2CCCC2)c1=O [Palbociclib] (first compound max 10 µM, 7x7, partner max 10 µM)
combination Emax: 0.376
//
Molecule: CC1(C)CCC(CN2CCN(c3ccc(C(=O)NS(=O)(=O)c4ccc(NCC5CCOCC5)c([N+](=O)[O-])c4)c(Oc4cnc5[nH]ccc5c4)c3)CC2)=C(c2ccc(Cl)cc2)C1 [Venetoclax] + Cc1cc2ncnn2cc1Nc1ncc2c(n1)n(C1CCOCC1)c(=O)n2C [AZD7648] (first compound max 1 µM, 7x7, partner max 10 µM)
combination Emax: 0.263
//
Molecule: CC(=O)c1c(C)c2cnc(Nc3ccc(N4CCNCC4)cn3)nc2n(C2CCCC2)c1=O [Palbociclib] + CN(CC[C@H](CSC1=CC=CC=C1)NC2=C(C=C(C=C2)S(=O)(=O)NC(=O)C3=CC=C(C=C3)N4CCC(CC4)[C@H](C5=CC=CC=C5C6=CC=C(C=C6)Cl)O)S(=O)(=O)C(F)(F)F)CCO [AZD4320] (first compound max 10 µM, 7x7, partner max 1 µM)
combination Emax: 0.159
